- tgt: stabilized BG505 SOSIP construct MD39 (HIV isolate BG505)
- procedure-details: competition ELISA on MD39 vs PGT121
A collection of binders and their measured competition value
measurement-name: competition value

binder="NC-Cow4 (antibody) VH: KVQLRESGPSLVKPSQTLSLTCMVSGFSLNDEAVGWVRQAPGKALEWLGSIDAGGSTGYNPGLKSRLSISKDNSKNQVSLSVSSVTTEDSATYYCGTVHQRTQPKQTCPNGYSDDSALRYYSRCSDRDCWRCTGTTYYDTCQCSSYTYIHTYELYVDAWGQGLLVTVSS VL: QAVLTQPSSVSGSLGQRVSITCSGSSSNVGNGYVSWYQLIPGSAPRTLIYGDTSRASGVPDRFSGSRSGNTATLTISSLQAEDEADYFCASPEDSSSNAVFGSGTTLTVL" measurement_name="competition value" obs_value=-11
binder="NC-Cow2 (antibody) VH: KVQLRESGPSLVKPSQTLSLTCMVSGSSLSDKAVGWVRQAPGKALEWLGIISAGGNRGYNSGLRSRLTISKDNSKNEVSLRVRSVTTEDSATYFCGTVHQKTQRKPICPDGYSDDSTLRYYSRCSDRDCWRCTGTTYYDTCQCGTYTWIDTHELHVDAWGQGLLVTVSS VL: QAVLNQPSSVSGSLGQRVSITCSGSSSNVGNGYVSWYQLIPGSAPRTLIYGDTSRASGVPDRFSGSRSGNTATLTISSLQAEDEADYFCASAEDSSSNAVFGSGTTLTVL" measurement_name="competition value" obs_value=27
binder="NC-Cow5 (antibody) VH: QVQLQESGPSLVKPSQTLSLTCMVSGFSLNDKAVGWVRQAPGKALEWLGSIDAGGSTGYNPGLKSRLSISKDNSKNQVSLSVSSVTTEDSATYYCGTVHQRTQPKQTCPNGYSDDSALRYYSRCSDRDCWRCTGTTYYDTCQCSSYTYIHTYELYVDAWGQGLLVTVSS VL: QDVLTQPSSVSGSLGQRVSITCSGSSSNVGNGYVSWYQLIPGSAPRTLIYGDTSRASGVPDRFSGSRSGNTATLTISSLQAEDEADYFCASPEDSSSNAVFGSGTTLTVL" measurement_name="competition value" obs_value=21
binder="NC-Cow7 (antibody) VH: KVQLRESGPSLVKPFETLSLTCTGSGFSLSDKAAGWVRQAPGKAPEWLGSIDTGGNTGYNPGLKYRLSITKDNSKSQVSLSVSSMTSEDSATYYCTTVHQKAYKKVCPDDYSSNPDCVRLYGWSHCDCMRDSFGGWCRADGCSSTVEIGPYEWYVNAWGQGLLVTVSS VL: QAVLTQPSSVSGSLGQRVSITCSGSSSNVGNGYVSWYQLIPGSAPRSLIYGDTSRASGVPDRFSGSRSGNTATLTISSLQAEDEADYFCASPEDSSSNGVFGSGTTLTVL" measurement_name="competition value" obs_value=23

Taken from patent US20200165324A1.
